- studyTarget: KIT on GIST-430/654 cells (human (GIST-430/654))
- testProtocol: flow cytometry
- measurementContext: apparent Kd on cells; SPR at 25 C, His-KIT on CM5 chip, 50 mM NaOH regeneration; flow cytometry with 250 nM Cy5-aptamer in binding buffer with 1 mg/ml BSA and 1 mM yeast tRNA; salt …
pKd: −log10 of the molar value.

- constructSequence: "ATTCAAGGGGCCGGGGCAAGGGGGGGGTACCGTGGTAGGACATAGT [KIT-d]"
  pKd: 6.96

----------
- studyTarget: KIT on GIST-430 cells (human (GIST-430)) (UniProt P10721)
- Sequence (P10721 26-976): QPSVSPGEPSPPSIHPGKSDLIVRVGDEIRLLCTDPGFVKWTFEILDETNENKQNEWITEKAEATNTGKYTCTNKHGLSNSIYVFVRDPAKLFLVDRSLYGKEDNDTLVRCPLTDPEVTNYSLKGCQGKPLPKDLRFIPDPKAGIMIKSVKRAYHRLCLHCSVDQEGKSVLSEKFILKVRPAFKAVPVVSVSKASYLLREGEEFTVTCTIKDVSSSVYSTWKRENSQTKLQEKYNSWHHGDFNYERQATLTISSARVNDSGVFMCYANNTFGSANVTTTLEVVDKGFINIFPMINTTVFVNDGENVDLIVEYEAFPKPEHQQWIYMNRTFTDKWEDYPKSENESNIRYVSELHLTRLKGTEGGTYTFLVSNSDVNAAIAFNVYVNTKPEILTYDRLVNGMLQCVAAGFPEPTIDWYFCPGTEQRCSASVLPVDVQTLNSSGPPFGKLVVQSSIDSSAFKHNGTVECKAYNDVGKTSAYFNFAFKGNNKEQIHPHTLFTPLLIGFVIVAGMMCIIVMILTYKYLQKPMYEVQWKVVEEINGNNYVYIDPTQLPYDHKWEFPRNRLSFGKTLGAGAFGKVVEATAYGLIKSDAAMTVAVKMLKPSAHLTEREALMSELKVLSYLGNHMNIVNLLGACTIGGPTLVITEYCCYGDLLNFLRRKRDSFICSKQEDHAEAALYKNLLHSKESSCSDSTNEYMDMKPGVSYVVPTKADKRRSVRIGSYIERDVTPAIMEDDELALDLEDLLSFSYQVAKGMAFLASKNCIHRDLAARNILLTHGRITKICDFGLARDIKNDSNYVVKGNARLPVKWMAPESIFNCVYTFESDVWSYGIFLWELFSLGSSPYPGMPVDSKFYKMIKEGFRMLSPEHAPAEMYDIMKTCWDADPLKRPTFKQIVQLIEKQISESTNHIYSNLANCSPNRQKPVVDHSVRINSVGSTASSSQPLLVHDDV
- testProtocol: flow cytometry
- measurementContext: apparent Kd on cells; SPR at 25 C, His-KIT on CM5 chip, 50 mM NaOH regeneration; flow cytometry with 250 nM Cy5-aptamer in binding buffer with 1 mg/ml BSA and 1 mM yeast tRNA; salt …

- constructSequence: "ATTCAAGGGGCCGGGGCAAGGGGGGGGTACCGTGGTAGGACATAGT [KIT-d]"
  Kd: "41.6 nM"

src = paper PMC12439145
